Tested on: ATP;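 further: ATP exposure 15 min at 22 °C before imaging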
ASSAY NOTES: switch fluorescence ratio, 500 uM ATP over buffer (Cy3 cluster intensity, sum of 5 cycles each) (fold (ratio)); higher = stronger signal-on switching upon ATP binding; sequences stand for … in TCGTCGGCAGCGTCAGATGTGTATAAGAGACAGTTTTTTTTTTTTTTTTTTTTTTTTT…TC
RUN PARAMETERS: aptamer strand: ATP DNA aptamer (quencher-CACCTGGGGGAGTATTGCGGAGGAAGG + anchor), 100 nM annealed; ATP concentration: 500 uM
Decision: switch fluorescence ratio compared against 1; not below it gives label 1, below it gives label 0.

Examples from the recorded data:
TTTGTTCATC	label 0
GGGGACAGGT	label 1
CGGCGCGTAG	label 1

stdin: Item TTCGGGGGGC with switch fluorescence ratio of 1 or above?
stdout: label 0

stdin: Item GAGGGGAGTG with switch fluorescence ratio of 1 or above?
stdout: label 1

stdin: Item TTGCTTGGGA with switch fluorescence ratio of 1 or above?
stdout: label 1

stdin: Item TTTCGTCATC with switch fluorescence ratio of 1 or above?
stdout: label 1

stdin: Item GTGAGTATCG with switch fluorescence ratio of 1 or above?
stdout: label 0

stdin: Item AAAAGGACGT with switch fluorescence ratio of 1 or above?
stdout: label 0

stdin: Item CCACCGGGGC with switch fluorescence ratio of 1 or above?
stdout: label 1

stdin: Item CAATAGACGG with switch fluorescence ratio of 1 or above?
stdout: label 1

stdin: Item ACGGTTAGGG with switch fluorescence ratio of 1 or above?
stdout: label 1

stdin: Item TATCAACCTT with switch fluorescence ratio of 1 or above?
stdout: label 1

stdin: Item CAATTAGCAT with switch fluorescence ratio of 1 or above?
stdout: label 1

====

Test system: ATP;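 further: ATP exposure 15 min at 22 °C before imaging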
ASSAY NOTES: switch fluorescence ratio, 500 uM ATP over buffer (Cy3 cluster intensity, sum of 5 cycles each) (fold (ratio)); higher = stronger signal-on switching upon ATP binding; sequences stand for … in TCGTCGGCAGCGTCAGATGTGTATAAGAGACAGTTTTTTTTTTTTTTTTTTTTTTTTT…TC
RUN PARAMETERS: aptamer strand: ATP DNA aptamer (quencher-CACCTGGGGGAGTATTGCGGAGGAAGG + anchor), 100 nM annealed; ATP concentration: 500 uM
Decision: switch fluorescence ratio compared against 1; not below it gives Satisfied, below it gives Not satisfied.

ATTGAAGGGC	Not satisfied
GCAACCTGAG	Satisfied
AAAGTTTTTT	Satisfied

Turning now to a further record.
stdin: Item ACGTCAAGGT with switch fluorescence ratio of 1 or above?
stdout: Satisfied

====

Tested on: ATP;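 further: ATP exposure 15 min at 22 °C before imaging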
ASSAY NOTES: switch fluorescence ratio, 500 uM ATP over buffer (Cy3 cluster intensity, sum of 5 cycles each) (fold (ratio)); higher = stronger signal-on switching upon ATP binding; sequences stand for … in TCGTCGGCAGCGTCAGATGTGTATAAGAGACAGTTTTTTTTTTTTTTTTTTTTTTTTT…TC
RUN PARAMETERS: aptamer strand: ATP DNA aptamer (quencher-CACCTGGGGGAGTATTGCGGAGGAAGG + anchor), 100 nM annealed; ATP concentration: 500 uM
PARAMETER: switch fluorescence ratio
Lab note: write the figure by itself, no unit.

# count of solved cases: 2
TGCACATAGG	1.06
CTGACCGGGT	1.01

stdin: GET /values?readout=switch fluorescence ratio&system=ATP&item= TTCTTTAATT;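 further: ATP exposure 15 min at 22 °C before imaging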
stdout: 0.963

stdin: GET /values?readout=switch fluorescence ratio&system=ATP&item= TAATTATGAG;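 further: ATP exposure 15 min at 22 °C before imaging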
stdout: 0.99

stdin: GET /values?readout=switch fluorescence ratio&system=ATP&item= TAATCGATGG;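 further: ATP exposure 15 min at 22 °C before imaging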
stdout: 1.01

stdin: GET /values?readout=switch fluorescence ratio&system=ATP&item= TATAGGTGCG;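 further: ATP exposure 15 min at 22 °C before imaging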
stdout: 0.989

stdin: GET /values?readout=switch fluorescence ratio&system=ATP&item= CGCGGGTTCA;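 further: ATP exposure 15 min at 22 °C before imaging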
stdout: 1.03

stdin: GET /values?readout=switch fluorescence ratio&system=ATP&item= TATAGTTCGG;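 further: ATP exposure 15 min at 22 °C before imaging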
stdout: 1.01

stdin: GET /values?readout=switch fluorescence ratio&system=ATP&item= TTTTTGAGGT;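 further: ATP exposure 15 min at 22 °C before imaging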
stdout: 1

stdin: GET /values?readout=switch fluorescence ratio&system=ATP&item= TCAGGCGGGC;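 further: ATP exposure 15 min at 22 °C before imaging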
stdout: 1.01

stdin: GET /values?readout=switch fluorescence ratio&system=ATP&item= TTAGATTGGG;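 further: ATP exposure 15 min at 22 °C before imaging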
stdout: 0.974

stdin: GET /values?readout=switch fluorescence ratio&system=ATP&item= GTTGTCTCCA;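 further: ATP exposure 15 min at 22 °C before imaging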
stdout: 0.985

stdin: GET /values?readout=switch fluorescence ratio&system=ATP&item= TTGGACTCCG;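 further: ATP exposure 15 min at 22 °C before imaging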
stdout: 1.14

stdin: GET /values?readout=switch fluorescence ratio&system=ATP&item= TTTTCCAAGA;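 further: ATP exposure 15 min at 22 °C before imaging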
stdout: 1.09

stdin: GET /values?readout=switch fluorescence ratio&system=ATP&item= GTTAGGTGGC;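 further: ATP exposure 15 min at 22 °C before imaging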
stdout: 0.931

Values compiled from the supplement of paper PMC10126150.
